meta.source: patent US20050059087A1

SUBJECT OF TEST: EGFRvIII, full length, expressed by transfected cells (NR6 M, H1477, 300.19/EGFRvIII) (human, UniProt P00533 298-1210)
MEASUREMENT PROTOCOL: cell-based or functional assay
READOUT: % internalization (%)
Please give a number only; it is taken to be in %.

BINDER: SC-EGFRvIII-XG2-150 (antibody, human IgG1, V domains shown, XenoMax-derived from an XMG2 mouse; also called sc150; 182D5) VH: QVQLQQSGPGLVKPSQTLSLTCAISGDSVSSYSSAWNWIRQSPSRGLEWLGRAYHRSRWYYEYAVSVKSRINITPDTSKNQFSLQLNSVTPEDTAVYYCARGSRFDYWGQGTLVTVSS VL: DIVMTQTPLSSPVTLGQPASISCRSSQSLVHRDGNTYLSWLQQRPGQPPRLLIYKISNRFSGVPDRFSGSGAGTDFTLKISRVEAEDVGIYFCMHTTQFPWTFGQGTRVEIK
% internalization / %: 20

Please find the next binder below.
Notebook: SC-EGFRvIII-XG1-139 (antibody, V domains shown, also called SC139; sc139) VH: EVQVLESGGGLVQPGGSLRLSCAASGFTFSSYAMSWVRQAPGKGLEWVSAISGSGGSTNYADSVKGRFTISRDNSKNTLYLQMNSLRAEDTAVYYCAGSSGWSEYWGQGTLVTVSS VL: DIQMTQSPSSLSASVGDRVTITCRASQGIRNNLAWYQQKPGKAPKRLIYAASNLQSGVPSRFTGSGSGTEFTLIVSSLQPEDFATYYCLQHHSYPLTSGGGTKVEIK , % internalization read as 80.8
